- System: K4 kissing-loop RNA reporter;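 also: bound reporter read as fluorescence of individual clusters on recovered sequencing chips by microscopy, with normalized cluster intensities fitted with a binding model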
- Test: apparent KD of K4 kissing-loop reporter; higher = weaker reporter binding
- Applied conditions: Eterna round: R107; input ligand: none
Quantity kind: apparent KD of K4 kissing-loop reporter (nM)
Kindly answer with a numeric value in nM, unit omitted.

>>> value_measured("GAGCCAGAAGUUGCUGCGGGUUUCAGAGAUACCAGCCGUAUUGUAGGCCCUUGGCAGCUCGAGUGAUGUUCGAGCCGCUUCUAGC [Inma]")
120
>>> value_measured("CCCAAGGGCGAACCGGUAUGAUCGACGGAUACCAGAGGCGAAAGCCUCCCUUGGCAGCCGGCUGUAGUGAUGUUACACUGGUUCU")
168
>>> value_measured("AAUUUAUUAUCUGAUACCAGACUUUUUCUUGUUUAUAAGUCAAGUGAUGUUUGACUUUUAGUCCCUUGGCAGCAGUAUUUUUUAA [JR_Nu_SSTheophyB_Sub026]")
123

Data request: For GCAGUGAUGUUGCAACCGCGUACGAUGCCUCGAGGACCGGUACGGCCGCCACUCGUCCUGGUUCAGGAGCUACAGACAUAGCUCA [theeternabot_sameState_KL_Trp_A_2] , what is its reported apparent KD of K4 kissing-loop reporter?
Data returned: 781

Data request: For GGAUAACAGGCAGGAUAUGCUUAGUAGUAAGGCCAUAUAUACGUAUAGAGUGAUGUUUUGUACAAGGCAGAAGGGCUAAAUCCAU [FMN B Excl V2 (+4G)] , what is its reported apparent KD of K4 kissing-loop reporter?
Data returned: 421

Data request: For GUAUCGCUAGGAGGAUAUUUCGUUUUUCAUAGCAAUGGCUAUGCGGAGUGAUGUUCCGAUUUACCGGAAGAAGGCCUAGUGAUAC [FMN B 26] , what is its reported apparent KD of K4 kissing-loop reporter?
Data returned: 202

Data request: For AAACGUUGGUCGGAUACCAGUUAGACCGAUAAGGUCAAAACUGGAGUGAUGUUCCCAAAUAACCCUUGGCAGCCGACCGACGAAA [MAT - Same State Theophlline B - Mod of Eli - D12] , what is its reported apparent KD of K4 kissing-loop reporter?
Data returned: 214

Data request: For GAUUCAGUGAUGUUGGAAGGCGAGCGGGAUACCAGCCGAGACUCAGGCCCUUGGCAGCCCACAUAUCCCAGGUAGAUAGUCGCUC [Same State - Theophylline A (Freestyle 10)] , what is its reported apparent KD of K4 kissing-loop reporter?
Data returned: 325

====

- Test system: MS2 coat protein
- Test: apparent KD of MS2 coat protein; designed switch direction (-1 OFF switch, 1 ON switch): -1; higher = weaker reporter binding
- Applied conditions: input ligand: none
The following sequences are shown together with reported apparent KD of MS2 coat protein values.

Sample records with apparent KD of MS2 coat protein:
>>> value_measured("UACAUGAGGAUCACCCAUGUCGGGUAAACGAAGGUUACUCAAGAGGAUAUAAAACCGAAAGGGUUUUAGAAGGCUUUUCCUCGA [Eternabot solution 27] (Eterna round: R96, puzzle: Exclusion NG 3)")
"0.0867 µM"
>>> value_measured("GACCUGAGGCAAAGCUUUAGGCUUACAUGAGGAUCACCCAUGUAGGAUAUGGUAGGCAAAGCUUACCAGAAGGACAUGGAAAUU [Mat - Exclusion NG 3 - Mod of JL - D25] (Eterna round: R96, puzzle: Exclusion NG 3)")
"0.125 µM"
>>> value_measured("GACAUGAGGAUCACCCAUGUAACCAGGGCAAUUCUCGAAAUGGAGGAUAUGAAUCUUAAUUAGGUUCAGAAGGCCAGAAGGCUA [Eternabot solution 29] (Eterna round: R96, puzzle: Exclusion NG 3)")
"0.206 µM"
>>> value_measured("UGCAAGCUUAUGAGACCUCACAUGAGGAUCACCCAUGUGCUCGUCUUAUGGGCCGGCCGGCCGUUGGCCGGCCGGCC [-45.5, -68.5 kcal, A 16%] (Eterna round: R97, puzzle: Sensor, turn-off variant 1)")
"0.0165 µM"
>>> value_measured("UUUGUUUAUGUAGGAUAUGCCUGGCGUGCCUUUGCAGAAGGACAUGAGGAUCACCCAUGUAUUGCGGUCUGCGUUCAGAUCGCC [salish99_ExNG1_r4_036] (Eterna round: R96, puzzle: Exclusion NG 1)")
"0.023 µM"
>>> value_measured("CGAUGAGGAGUGAGGAUAUCGUGUUCGAAAGAACGUGAGAAGGCACAUGAGGAUCACCCAUGUGAUCCUUGUCG [Omei Ex4B A9] (Eterna round: R97, puzzle: Brourd's mod of Exclusion 4)")
"0.0304 µM"
>>> value_measured("GCAAUUUCAAAGGAUAUACCUAAUUAACUAUCGGUAGAAGGUUGGACAUGAGGAUCACCCAUGUGCUCACACUU [Eternabot (L2) Solution 67] (Eterna round: R97, puzzle: Exclusion 6)")
"0.0156 µM"
>>> value_measured("AGUGCUGGCGCGUCGGUGUUGGUGCAAUAAGCUUGUGAAACAUGAGGAUCACCCAUGUCCUCAUAAGCUCGUCUUAU [salish99_TOv2_r2_085] (Eterna round: R96, puzzle: Sensor v3, turn-off variant 2)")
"0.0179 µM"

Data request: For UUUAAGUAAGGAUAUGCGAGCCACGGAAAUAAAACGUGGAGGUAGAAGGUACAUGAGGAUCACCCAUGUAAAAC [Mod of Anonveat 23 - Jieux - Exclusion 4] (Eterna round: R97, puzzle: Exclusion 4) , what is its reported apparent KD of MS2 coat protein?
Data returned: 0.0231 µM

====

- Tested on: MS2 coat protein
- Test: apparent KD of MS2 coat protein; higher = weaker reporter binding
- Applied conditions: Eterna round: R107; input ligand: theophylline 20 uM
Quantity kind: apparent KD of MS2 coat protein
The reply must contain the numeric value and, after it, the unit.

>>> value_measured("AAUAAAUCACAUGAGGAUCACCCAUGUGAUACCAGCCUGGAAACAGGCCCUUGGCAGCACAUGAGGAUCACCCAUGUGCUAAAUA [TheoAX 1 #DoubleMS2 #OpenEnded]")
"8.81 nM"
>>> value_measured("ACGACGCAUAGUGAUACCAGUAGAACAUGAGGAUCACCCAUGUCUGUGACGCACAAAUUCUGCCCUUGGCAGCACUAUGCGUCAG [SSTheo B #6]")
"18.1 nM"
>>> value_measured("UUCAGCUAGUCGGCCGCCACUACAAGAGGAUCACCCUUGUAAUCCUAACACUGCUUCGGCAGUGGUAGGACCGGGACUAGCUGAG")
"17.3 nM"
>>> value_measured("CAUCGGGCGGUAAAUGGCGGGUACGGUGAUACCAGUUUUUGAUUUAACCCUUGGCAGCACUAUACAUGAGGAUCACCCAUGUAAU [theeternabot_exclusion_MS2_Theo_A_15]")
"23.2 nM"
>>> value_measured("ACGAACUGUAGUGAUACCAGACGUACAUGAGGAUCACCCAUGUUGUAAACAUGGUGAAUAGUCCCUUGGCAGCACAGUUAGUUCG [#11 Exclusion-TheophyllineB]")
"355 nM"

Let's switch to this sequence now.
Data request: For UAAAGUAGGUCCAAUAAAACUACAUGUGAAGGAGCGCGCGAAAGCGCAGGUAGGUCGCACAUGAGGAUCACCCAUGUCCUACAAU [MAT - Exclusion Arginine A - Mod of Eli - D17] , what is its reported apparent KD of MS2 coat protein?
Data returned: 69.1 nM

====

- Tested on: MS2 coat protein
- Test: apparent KD of MS2 coat protein; designed switch direction (-1 OFF switch, 1 ON switch): -1; higher = weaker reporter binding
- Applied conditions: input ligand: microRNA oligo, concentration not stated
The following sequences are shown together with reported apparent KD of MS2 coat protein values.
Kindly answer with a numeric value in nM, unit omitted.

Sample records with apparent KD of MS2 coat protein:
>>> value_measured("AAGAUGUAAGGAUAUGCUGCUCGUCACAAAAGUGAUGAGUAGCAGAAGGUACAUGAGGAUCACCCAUGUAGAGA [Opal 38] (Eterna round: R96, puzzle: Exclusion 4)")
18.2
>>> value_measured("ACAUGAGGAUCACCCAUGUGAAAAGAAUGGCUGACACAGAGAUAGGAUAUAUGUGCAUAUCUAACGUAGAAGGGUCAUGACUGG [Deportation 78 - Jieux - Exclusion NG 3] (Eterna round: R96, puzzle: Exclusion NG 3)")
26.5

Let's switch to this sequence now.
Data request: For AGCUGUGGCCGAGGAUAUCUAAUAAUCUCAACCGAAAUAUAAUCGGACAUGAGGAUCACCCAUGUAGAGAAGGCGGUCUCAGCA [Eli eng2 - 067] (Eterna round: R96, puzzle: Exclusion NG 2) , what is its reported apparent KD of MS2 coat protein?
Data returned: 27.2

====

- Tested on: MS2 coat protein
- Test: apparent KD of MS2 coat protein, switch ON state; designed switch direction (-1 OFF switch, 1 ON switch): -1; higher = weaker reporter binding
- Applied conditions: FMN input: 0 or 200 uM; Eterna round: R93 (includes R88 designs)
The following sequences are shown together with reported apparent KD of MS2 coat protein values.
Kindly answer with a numeric value in nM, unit omitted.

>>> value_measured("AGAAAGCUAGGAUAUACCUGGAGGGUUCGAAAUGAAAUAAAACAUGAGGAUCACCCAUGUAGAAGGAGCCCGAG [Veislela]")
42.6
>>> value_measured("AAGAAGUCAGGAUAUGGUGCUCGUCACUUGCGUGAUGAGUACCAGAAGGGACAUGAGGAUCACCCAUGUAAAGA [Opal 21]")
47.1
>>> value_measured("UUCGCACAUGAGGAUCACCCAUGUCAGGAUAUCGUGGCGGGAAAAACCGGGAAACGCACGAGAAGGGACACACA [EX1 Malc#18 Mod 15 - Jieux - Exclusion 1]")
47.3
>>> value_measured("AACUAGCUAGGAUAUACAUGAGGAUCACCCAUGUAAAAAAAAAAAAAAAGAUCAAAAUGUAGAAGGAGCUAGUA [Design 2 - Brourd - Exclusion 3]")
59.6
>>> value_measured("AAGAAUGCAGGAUAUACAAAAUAAAAGAAAAGAAAGAAAGAACAUGAGGAUCACCCAUGUAGAAGGGCAAAGAA [Menwadjre Sihathor]")
30
>>> value_measured("AACAGUACAGGAUAUACAUGAGGAUCACCCAUGUGAAAAUUAAGUGGAAAACCACAAAGUAGAAGGGUACUGAA [Mat - Exclusion 3 - Eli mod - D58]")
21.4
>>> value_measured("AAAAAGGAAGGAUAUACGAACAUGUCAAAAGACGUGAAGGGACAUGAGGAUCACCCAUGUAGAAGGUUCAAAAA [JL Half Open 24]")
38.7
>>> value_measured("GAGAAGUGAGGAUAUCGAAGACAGACGAAAAGUCUGUCAAACGAGAAGGCACAUGAGGAUCACCCAUGUGGGAA [Mat - Exaclusion 4 - Eli mod - D76]")
75.8
>>> value_measured("AAAAAACAUGAGGAUCACCCAUGUAAGGAUAUGACUUAAAUAAAGAAAGAAGAAAUAGUCAGAAGGUACAAAUA [Disincluded (MS2 Riboswitches - States energetically close)]")
20.4
>>> value_measured("AAAAGUGGAGGAUAUACAUGAGGAUCACCCAUGUGUAAAAAUAAAAACACAAAAGAAAGUAGAAGGCCACAAAA [Ex 3 May 9]")
24.1

Data request: For UAAAAGUGAGGAUAUUCGGAUAGGAAAACGAAAACCUAUCCGAAGAAGGCACAUGAGGAUCACCCAUGUAAAAU [Mat - Exaclusion 4 - Eli mod - D37] , what is its reported apparent KD of MS2 coat protein?
Data returned: 33.1

Data request: For AUCAACCUAGGAUAUACAUGAGGAUCACCCAUGUACAGAUACAACAAGGGAAACACACGUAGAAGGAGGAAGAU [JR_Exc003_Sub1205] , what is its reported apparent KD of MS2 coat protein?
Data returned: 24.4

Data request: For AAAAUACAUGAGGAUCACCCAUGUCAGGAUAUGCUAAAAAAAAAAUUAAAAAAAAAAUGUAGAAGGGACUAAAA [Exclusion Z2] , what is its reported apparent KD of MS2 coat protein?
Data returned: 53.7

Data request: For AACGAGUCAGGAUAUACAAAAAAUAAAUAAAUAAAAUAAAAGUAGAAGGGACAUGAGGAUCACCCAUGUAAAUA [JR_Exc004_Sub020] , what is its reported apparent KD of MS2 coat protein?
Data returned: 59.3

Data request: For AGGGUACAUGAGGAUCACCCAUGUUAGGAUAUUGAAAAGAAAAGAAAAGAAAGAAGAACAAGAAGGGACAAGAA [Userkare] , what is its reported apparent KD of MS2 coat protein?
Data returned: 56.5

Data request: For AACUGACAUGAGGAUCACCCAUGUCAGGAUAUGAUAUGUAAAAAAAAAAAAAUACUUAUCAGAAGGGACAUGAA [Design 44: Sub-opt CB] , what is its reported apparent KD of MS2 coat protein?
Data returned: 15.1

Data request: For AACCUGCUAGGAUAUACAGCAGGGAUUCGAAAACCCACGAAACAUGAGGAUCACCCAUGUAGAAGGAGUAGGGA [Teainis] , what is its reported apparent KD of MS2 coat protein?
Data returned: 20.3

Data request: For AACUAGUCAGGAUAUACGAACAUGUCAAAAAACAUAAAGGGACAUGAGGAUCACCCAUGUAGAAGGGACUAACA [74%, Web mod - With 5 less G's] , what is its reported apparent KD of MS2 coat protein?
Data returned: 299

Data request: For UAAAGGCGAGGAUAUACAUGAGGAUCACCCAUGUGAAUAAAUAAGAAAAUAAAAGAAAGUAGAAGGCGCAAGAA [LROPPY Exclusion 3 - v03_deltaG=1.9 break up As mixed] , what is its reported apparent KD of MS2 coat protein?
Data returned: 44.1

Data request: For AGUGAGUGAGGAUAUGAGUGAACAACAAAACAAAUAACGACUCAGAAGGCACAUGAGGAUCACCCAUGUACACA [May 68] , what is its reported apparent KD of MS2 coat protein?
Data returned: 24

Data request: For GGAAAACAUGAGGAUCACCCAUGUGAGGAUAUCGAUGUCCAAAAAAAAGUGCGGGACUCGAGAAGGCACUUGGC [salish99-ex1-33] , what is its reported apparent KD of MS2 coat protein?
Data returned: 51.5

Data request: For AACAGUACAGGAUAUACAUGAGGAUCACCCAUGUGAGAAUUAAGUAGAUUGCCACAAAGUAGAAGGGUACUGGA [Ruby 98] , what is its reported apparent KD of MS2 coat protein?
Data returned: 59.3
